Assay: protein stability index of a GFP-peptide fusion (yeast GPS) (PSI 1-4); higher = more stable; sorted into four equal gates, so the index is relative within each strain
Conditions: ubr1∆
READOUT: protein stability index
Please give the numeric answer without any surrounding text.

Exam item: Fill in the blank: the reported protein stability index of ECPLDPGGYFIVNGTEK [RET1] is ____.
Marked response: 3.29

Exam item: I am curious: what protein stability index value has been reported for QAHEIVIPSYSKWFNLE [SWI3] ?
Marked response: 1.66

Exam item: Field request: protein stability index | item: IGANIYQSPTIFKIVQS [MED6]
Marked response: 2.27

Exam item: # lookup: protein stability index of SLEMVPKDTSAATMTSA [RGR1]
Marked response: 2.93

Exam item: Name the reported protein stability index value associated with the sequence GRLDRKIEFPLPSEDSR [RPT5]
Marked response: 3.56

Exam item: Need protein stability index of KGQGPFTLTYDIIETFS [YMR129W/POM152] , thanks.
Marked response: 2.48

Exam item: Looking for the measured protein stability index of NGNTSSKTVVTLSEPVQ [FAS1] , can you help?
Marked response: 2.96

Exam item: What does the record list as protein stability index for DDMDIDEVNDRSDISDS [PCI8] ?
Marked response: 3.02

Exam item: I'd like to know its protein stability index. The sequence in question is LNTFHFAGVASKKVTSG [RPO21]
Marked response: 2.9

Exam item: What does the data say about its protein stability index? Entry: TLVNKSTGLKNASDALK [RPS1B]
Marked response: 3.24

Exam item: Find the recorded protein stability index belonging to RSEDPAGLGKTNELWAR [YGR119C/NUP57] and report it.
Marked response: 3.4

Exam item: Fill blank: measured protein stability index of the sequence LGKKGVPYVVTHDGRTI [RPS4A] is ____.
Marked response: 2.13

Exam item: Give its protein stability index value. Item: KLSQYVQEMALGGPITK [FAS2]
Marked response: 2.53

Exam item: Can you look up the measured protein stability index of FDNYQRNNFLAENSHTQ [PUP1] for me?
Marked response: 3.19

---

Experiment: protein stability index of a GFP-peptide fusion (yeast GPS) (PSI 1-4); higher = more stable; sorted into four equal gates, so the index is relative within each strain
Conditions: ubr1∆
Field: protein stability index. Provide a value for each of the sequences that follow.
Please respond with just the number, no unit label.

Exam item: Give its protein stability index value. Item: RSRNGGATKIVREHYLR [DIS3]
Marked response: 3.2

Exam item: What value of protein stability index has been recorded for this entry: REIQTAVRLILPGELAK [HTB1]
Marked response: 3.08

Exam item: Need protein stability index, item SRQVQKRPRSRTLTAVH [RPS7A]
Marked response: 2.03

Exam item: Look up protein stability index: GLRVRGQHTKTTGRRRA [RPS18A]
Marked response: 2.54

Exam item: Dear colleague, I am looking for the recorded protein stability index of the following sequence: FNNEKETEKFALERNWP [RPN12]
Marked response: 2.84

Exam item: Param item = SQLKKTKAQQKTAEQIA [RPL7B] ; retrieve measured protein stability index.
Marked response: 2.86

Exam item: // protein stability index lookup, key: GIKATNGVVIATEKKSS [PRE8]
Marked response: 3.09

Exam item: # input sequence: QKYWESMRIQILRRQAI [GAL11] ; wanted: its protein stability index
Marked response: 2.1

Exam item: Field request: protein stability index | item: VLSTFTAEFGKILAGLH [RPN10]
Marked response: 3.05

Exam item: Please give the measured protein stability index for this sequence: VLEYLAAEILELAGNAA [HTA1]
Marked response: 2.84

Exam item: Which protein stability index value belongs to ELLSMGNAKESKALLRE [SRP72] ?
Marked response: 3.13

Exam item: Requested field: protein stability index. Item: KCQELVTNIRRIIQDNI [RRP46]
Marked response: 1.94

Exam item: So what does the record say about protein stability index for LGYARFILLDRLRQFNL [SMC4] ?
Marked response: 1.63

Exam item: I am curious: what protein stability index value has been reported for ALMKTLIKFVDLSRNGR [NUT1] ?
Marked response: 2.65

Exam item: Which protein stability index value belongs to PSPPNVIITDGTLLRED [YDL088C/ASM4] ?
Marked response: 2.91

Exam item: Please look up its protein stability index: NTNGTNASANSTSFSFN [YOR098C/NUP1]
Marked response: 3.06

Exam item: Suppose we examine the sequence IQCQIDKLYIHFVQEEP [RGR1] ; what protein stability index value has been reported?
Marked response: 3.15

Exam item: What protein stability index value was documented for this sequence, GTPLLEVRGQVPVIESA [SNU114] ?
Marked response: 1.95

Exam item: Which protein stability index is reported for this sequence? NNHNMRNNSNNKTSNNN [SWI1]
Marked response: 2.6

Exam item: I would be grateful if you could share the reported protein stability index for IAATAVASLVLARGHRV [RPL4A] .
Marked response: 1.93

Exam item: Query: protein stability index; subject: ISHIEKRIESLQKDLQR [SMC1]
Marked response: 1.85

Exam item: // lookup protein stability index for VTIASEIYYDPDPRSTV [RPO21]
Marked response: 2.52

Exam item: Given the sequence MFQSQSQLQPQPQPQPQ [YDL088C/ASM4] , what is its reported protein stability index?
Marked response: 2.99

Exam item: Which protein stability index value belongs to QVMEEKLDENNAQLSCI [PUP2] ?
Marked response: 3.17

Exam item: For the sequence KISLLRPSFQNNRISNA [SWP82] , what protein stability index is on record?
Marked response: 2.27

Exam item: Param item = ISHDDLQAVAVAVSTKK [FAS2] ; retrieve measured protein stability index.
Marked response: 1.32

Exam item: Given the entry VRGGNIEIMGILMGFTL [RRI1] , report its measured protein stability index.
Marked response: 2.9

Exam item: Query: protein stability index; subject: KNYTTETDNEMNGNGKP [SIR3]
Marked response: 3.22

Exam item: Give its protein stability index value. Item: KKKGLDENTSGKISKPR [PRP28]
Marked response: 3.45

Exam item: I would be grateful if you could share the reported protein stability index for ALSIADDASSAELLGRV [RPC53] .
Marked response: 3.12

Exam item: Name the reported protein stability index value associated with the sequence NSNSNSGSLFGSNNAQT [YGL172W/NUP49]
Marked response: 3.11

Exam item: Item PNNSRDDYKDLTCSLYE [IRR1] has what recorded protein stability index?
Marked response: 3.24

Exam item: Name the recorded protein stability index for IFTDAGRVYRPLFIVED [RPB2] .
Marked response: 1.89

Exam item: Entry under review: VSLPEGSFKRVKPQYDE [BRR2] . Reported protein stability index?
Marked response: 2.95

Exam item: State the recorded protein stability index for this entry: NLPEEERKQIHEFKLIV [GRR1]
Marked response: 2.73

Exam item: Given the sequence GRYMEALALYVDAYRRL [SRP68] , what is its reported protein stability index?
Marked response: 1.79

Exam item: Using the record for ITKFALFAESHDVLQKL [YML103C/NUP188] , report its protein stability index.
Marked response: 2.45

Exam item: Which protein stability index value belongs to EEQEKINSAPDFTQEDE [ISW2] ?
Marked response: 3.55

Exam item: Fill blank: measured protein stability index of the sequence TAIAHSIREQVHMYHKS [SNF5] is ____.
Marked response: 2.12

Exam item: Give its protein stability index value. Item: NTLNIDNTARVIFDASI [BRN1]
Marked response: 2.37

Exam item: Can you look up the measured protein stability index of QPVNFNRSWDHAYNITF [RPO31] for me?
Marked response: 2.45

Exam item: Data request, read-out protein stability index, for LLGIFDDIFIPQNMLFE [RPC25]
Marked response: 2.69

Exam item: # lookup: protein stability index of KDIRSTLASLIRYNSVE [RPC82]
Marked response: 2.45

Exam item: // returns reported protein stability index for input GLIAARRTGLLRGSQKT [RPL2A]
Marked response: 2.78

Exam item: Entry SFKKIIKFLLTFIDKER [YCS4] has what protein stability index?
Marked response: 1.17

Exam item: Give its protein stability index value. Item: MKWSAIPFQTLYRSIES [YJL039C/NUP192]
Marked response: 1.91

Exam item: Name the reported protein stability index value associated with the sequence VSTAAAATVRSTIRRLR [RPL43A]
Marked response: 2.95

Exam item: Quick one: protein stability index for QAHTLYNSVRPFGVSTI [PRE10] ?
Marked response: 2.6

Exam item: Param item = NLLHSYMEKGTQLDDLQ [YML103C/NUP188] ; retrieve measured protein stability index.
Marked response: 2.32

Exam item: If you can, please state the reported protein stability index value of PTPAASAPAPAAAAPAP [FAS2] .
Marked response: 3.1

Exam item: Fill blank: measured protein stability index of the sequence VLRIPEEYLDANVFRLE [MTW1] is ____.
Marked response: 3.23

Exam item: Consider the sequence shown here: CESCSTILCTPTGGKAK [RPS27A] What is its recorded protein stability index?
Marked response: 2.18

Exam item: Which measured protein stability index value corresponds to SLLERHIPRLIPKQLLD [YJL039C/NUP192] ?
Marked response: 1.45

Exam item: Data request, read-out protein stability index, for KSLGVKSLGGGAALKDI [FAS2]
Marked response: 2.86

Exam item: Report protein stability index for VAEIEKTADVKRQYVKQ [RPL20A] please.
Marked response: 3.1

Exam item: Item under review: STKKKILGIHTSKMNLS [RPT2] . Reported protein stability index?
Marked response: 3.05

Exam item: Can you look up the measured protein stability index of EGSKSHPFGHALVAGIE [RPL27A] for me?
Marked response: 2.76

Exam item: Report protein stability index for LFAFNGVARNFHFAIEQ [SIN4] please.
Marked response: 3.06

Exam item: Need protein stability index of QEESFSLNLGIGIVEIA [SRB8] , thanks.
Marked response: 1.89

Exam item: So what's the measured protein stability index for this one? NDVTRRTVKNILVSVLP [CSL4]
Marked response: 3.09
